Biological target: OsSMF1 (Oryza sativa, UniProt Q6ZLB0 1-436)
Sequence: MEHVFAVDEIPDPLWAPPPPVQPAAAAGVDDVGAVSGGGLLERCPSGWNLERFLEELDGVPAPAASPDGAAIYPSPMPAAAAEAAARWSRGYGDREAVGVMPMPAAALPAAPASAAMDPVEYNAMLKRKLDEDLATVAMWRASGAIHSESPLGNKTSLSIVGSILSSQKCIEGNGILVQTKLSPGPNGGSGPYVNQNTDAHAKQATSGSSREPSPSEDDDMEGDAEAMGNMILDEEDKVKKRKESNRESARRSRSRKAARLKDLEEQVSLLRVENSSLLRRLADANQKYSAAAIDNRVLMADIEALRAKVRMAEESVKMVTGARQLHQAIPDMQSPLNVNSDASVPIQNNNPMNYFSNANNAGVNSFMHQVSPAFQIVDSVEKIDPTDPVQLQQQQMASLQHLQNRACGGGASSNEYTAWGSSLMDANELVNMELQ
Assay: protein-binding microarray (RPBM); PBS, 2% BSA, 51.3 ng/ul salmon testes DNA, 50 uM zinc acetate, 200 nM TF, 25 C, 1 h; high values mean tight binding
Details: protein: recombinant; tags: N-terminal polyhistidine and DsRed monomer fusion (pET32a); chain copies: 2; label: CyDye5-dUTP incorporated in the synthesized complementary strand; 3' TTTTT single-stranded linker to array surface; dsDNA, one strand shown
The full ranking holds about 39,000 sequences; the median of “fluorescence intensity (a.u.)” is about 4,300, and the highest 2% start at about 39,000. Many of the other results were omitted from the sample, so the highest values are more common in it than they were.
outcome measure: binding signal

{"entry sequence": "TCCCAAACCCCGCGCCGCCTCTTACCGCTTCGCGTCAGCTCGGAGTCACCTAGTGCAG", "outcome measure": "binding signal", "observed measurement": "63900 fluorescence intensity (a.u.)"}
{"entry sequence": "GCTGAGCTGAGCTGATATGATCAACACAGTGCAGACTTGGCGGAGTCACCTAGTGCAG", "outcome measure": "binding signal", "observed measurement": "3710 fluorescence intensity (a.u.)"}
{"entry sequence": "CTATAATTTAAACATGTAAAGTTTACGTGTATATAAATTTCGGAGTCACCTAGTGCAG", "outcome measure": "binding signal", "observed measurement": "3160 fluorescence intensity (a.u.)"}
{"entry sequence": "CACCAAACCCCAACCCACCTCCAGGTCATCCACCCACATCCGGAGTCACCTAGTGCAG", "outcome measure": "binding signal", "observed measurement": "3900 fluorescence intensity (a.u.)"}
{"entry sequence": "TTTATTATTAGTTTACGTTTAATACTTCTAATTAGTATAACGGAGTCACCTAGTGCAG", "outcome measure": "binding signal", "observed measurement": "3240 fluorescence intensity (a.u.)"}
{"entry sequence": "TGAAAATTTGTACACGTAAGTAATAGATGGTACCAATAGACGGAGTCACCTAGTGCAG", "outcome measure": "binding signal", "observed measurement": "5890 fluorescence intensity (a.u.)"}
{"entry sequence": "AATCTATATGTTATCGTCCTCCTCTTGCGTGTGGCTAGTTCGGAGTCACCTAGTGCAG", "outcome measure": "binding signal", "observed measurement": "3750 fluorescence intensity (a.u.)"}
{"entry sequence": "ACATCCGAGAGACTAGGCCGACAAATCACCACCGACACGTCGGAGTCACCTAGTGCAG", "outcome measure": "binding signal", "observed measurement": "5890 fluorescence intensity (a.u.)"}
{"entry sequence": "GTAGTACCATGTATTAGATGGACTTCTCCACGTTTCTCTGCGGAGTCACCTAGTGCAG", "outcome measure": "binding signal", "observed measurement": "4980 fluorescence intensity (a.u.)"}
{"entry sequence": "ACTTGATCAGCACACTCTGGTGACATGACAGCTGTAAAGTCGGAGTCACCTAGTGCAG", "outcome measure": "binding signal", "observed measurement": "4180 fluorescence intensity (a.u.)"}
{"entry sequence": "TGCATAAGTGTCCGTACCAGTACGGTCAGAGTGACATATGCGGAGTCACCTAGTGCAG", "outcome measure": "binding signal", "observed measurement": "3770 fluorescence intensity (a.u.)"}
{"entry sequence": "ACACCATGCGTATGATGCAATACCTATTGACTCCATTGAACGGAGTCACCTAGTGCAG", "outcome measure": "binding signal", "observed measurement": "3380 fluorescence intensity (a.u.)"}
{"entry sequence": "CGGCTTACGGCCGCCTGTCGGGGAAGATGACTCCCTCTTCCGGAGTCACCTAGTGCAG", "outcome measure": "binding signal", "observed measurement": "5050 fluorescence intensity (a.u.)"}
{"entry sequence": "GTCGGCCCATGAATATGCTGACGTCACTTTTGAGCCCACTCGGAGTCACCTAGTGCAG", "outcome measure": "binding signal", "observed measurement": "36600 fluorescence intensity (a.u.)"}
{"entry sequence": "CACCCGCCGCTGCTCTGCCTACTCGCCGGCCACCTCCTCACGGAGTCACCTAGTGCAG", "outcome measure": "binding signal", "observed measurement": "3720 fluorescence intensity (a.u.)"}
{"entry sequence": "CTAGAAGTTACCAAGGTACCAGAGCAGACACCTAAGCAGCCGGAGTCACCTAGTGCAG", "outcome measure": "binding signal", "observed measurement": "3370 fluorescence intensity (a.u.)"}
